biological target: T1, Human ACVR2A (human, UniProt P27037 20-135, limits assumed); assay: ELISA; further: test concentration or dose not given here
T1 construct: also called activin receptor, type II A
T1 sequence (P27037 20-135 limits assumed): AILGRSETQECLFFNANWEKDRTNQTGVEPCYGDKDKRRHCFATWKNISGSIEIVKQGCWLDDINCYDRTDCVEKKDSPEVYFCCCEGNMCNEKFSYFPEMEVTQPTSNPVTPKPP

binder	optical density (OD)
373_E01 (antibody, V domains shown) VH: EVQLLESGGGLVQPGGSLRLSCAASGFTFSSYGMNWVRQAPGKGLEWVSGINYNGGYKGYADSVKGRFTISRDNSKNTLYLQMNSLRAEDTAVYYCARSANWHDTALDYWGQGTLVTVSS VL: DIQMTQSPSSLSASVGDRVTITCRASQSIVSYVNWYQQKPGKAPKLLIYAATSRHSGVPSRFSGSGSGTDFTLTISSLQPEDFATYYCQQSYNNPLTFGGGTKVEIK	2.35
369_H05 (antibody, V domains shown) VH: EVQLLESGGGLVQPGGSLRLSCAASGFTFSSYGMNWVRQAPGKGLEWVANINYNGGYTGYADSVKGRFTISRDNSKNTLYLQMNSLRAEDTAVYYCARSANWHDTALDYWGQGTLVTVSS VL: DIQMTQSPSSLSASVGDRVTITCRASQSIVSYVNWYQQKPGKAPKLLIYAATSRASGVPSRFSGSGSGTDFTLTISSLQPEDFATYYCQQSYSNPLTFGGGTKVEIK	3.25
369_G04 (antibody, V domains shown) VH: EVQLLESGGGLVQPGGSLRLSCAASGFTFDSYSMNWVRQAPGKGLEWVSGINYNGGYTSYADSVKGRFTISRDNSKNTLYLQMNSLRAEDTAVYYCARSANWHDTALDYWGQGTLVTVSS VL: DIQMTQSPSSLSASVGDRVTITCRASQSILTYVNWYQQKPGKAPKLLIYATTSRHSGVPSRFSGSGSGTDFTLTISSLQPEDFATYYCQQSYETPLTFGGGTKVEIK	2.37
369_F06 (antibody, V domains shown) VH: EVQLLESGGGLVQPGGSLRLSCAASGFTFDDYSMNWVRQAPGKGLEWVAGINYNGGYKGYADSVKGRFTISRDNSKNTLYLQMNSLRAEDTAVYYCARSANWHDTALDYWGQGTLVTVSS VL: DIQMTQSPSSLSASVGDRVTITCRASQSIVSYVNWYQQKPGKAPKLVIYAATSRASGVPSRFSGSGSGTDFTLTISSLQPEDFATYYCQQSYDSPLTFGGGTKVEIK	3.11
373_D04 (antibody, V domains shown) VH: EVQLLESGGGLVQPGGSLRLSCAASGFTFDSYSMNWVRQAPGKGLEWVSGINYNSGYKGYADSVKGRFTISRDNSKNTLYLQMNSLRAEDTAVYYCARSANWHDTALDYWGQGTLVTVSS VL: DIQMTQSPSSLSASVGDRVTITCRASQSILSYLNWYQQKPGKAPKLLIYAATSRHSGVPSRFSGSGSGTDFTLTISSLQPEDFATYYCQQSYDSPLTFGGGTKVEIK	3.68
371_D06 (antibody, V domains shown) VH: EVQLLESGGGLVQPGGSLRLSCAASGFTFDDYSMNWVRQAPGKGLEWVAGINYNGGYTSYADSVKGRFTISRDNSKNTLYLQMNSLRAEDTAVYYCARSANWHDTALDYWGQGTLVTVSS VL: DIQMTQSPSSLSASVGDRVTITCRASQSIISYVNWYQQKPGKAPKLLIYAATSRASGVPSRFSGSGSGTDFTLTISSLQPEDFATYYCQQSYSTPLTFGGGTKVEIK	1.48
370_C05 (antibody, V domains shown) VH: EVQLLESGGGLVQPGGSLRLSCAASGFTFSSYSMNWVRQAPGKGLEWVAGINYNSGYTGYADSVKGRFTISRDNSKNTLYLQMNSLRAEDTAVYYCARSANWHDTALDYWGQGTLVTVSS VL: DIQMTQSPSSLSASVGDRVTITCRASQSILSYVNWYQQKPGKAPKLVIYAATSRASGVPSRFSGSGSGTDFTLTISSLQPEDFATYYCQQSYNSPLTFGGGTKVEIK	3.21
370_H09 (antibody, V domains shown) VH: EVQLLESGGGLVQPGGSLRLSCAASGFTFSSYGMNWVRQAPGKGLEWVANINYNGGYTSYADSVKGRFTISRDNSKNTLYLQMNSLRAEDTAVYYCARSANWHDTALDYWGQGTLVTVSS VL: DIQMTQSPSSLSASVGDRVTITCRASQSIVSYVNWYQQKPGKAPKLLIYAATSRASGVPSRFSGSGSGTDFTLTISSLQPEDFATYYCQQSYDNPLTFGGGTKVEIK	2.95
371_B06 (antibody, V domains shown) VH: EVQLLESGGGLVQPGGSLRLSCAASGFTFDSYSMNWVRQAPGKGLEWVAGINYNGGYKSYADSVKGRFTISRDNSKNTLYLQMNSLRAEDTAVYYCARSANWHDTALDYWGQGTLVTVSS VL: DIQMTQSPSSLSASVGDRVTITCRASQSILTYVNWYQQKPGKAPKLVIYAATSRHSGVPSRFSGSGSGTDFTLTISSLQPEDFATYYCQQSYNLPLTFGGGTKVEIK	2.69
367_H11 (antibody, V domains shown) VH: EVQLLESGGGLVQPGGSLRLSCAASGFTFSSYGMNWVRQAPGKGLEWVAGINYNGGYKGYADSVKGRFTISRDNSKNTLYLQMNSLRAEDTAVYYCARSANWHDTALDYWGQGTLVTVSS VL: DIQMTQSPSSLSASVGDRVTITCRASQSIISYVNWYQQKPGKAPKLVIYAATSRASGVPSRFSGSGSGTDFTLTISSLQPEDFATYYCQQSYNSPLTFGGGTKVEIK	2.37

This collection of values is drawn from patent US20210380703A1.
